# Test system: mock-infected MT4 cells
# Assay Remarks: in vitro
Kindly supply the reported Tox (pCC50) values for the records listed here.

Compound	Tox (pCC50)
CC(C)CN(C[C@@H](O)[C@H](Cc1ccccc1)NC(=O)OCc1cncs1)S(=O)(=O)c1ccc2nc(NC(=O)CN(C)C)oc2c1	<4
CC(=O)Nc1nc2ccc(S(=O)(=O)N(CC(C)C)C[C@@H](O)[C@H](Cc3ccccc3)NC(=O)O[C@H]3CO[C@H]4OCC[C@H]43)cc2o1	<4
CC(C)CN(C[C@@H](O)[C@H](Cc1ccccc1)NC(=O)OCc1cncs1)S(=O)(=O)c1ccc2nc(N(C)C(=O)C3CCCN(C)C3)oc2c1 (some centres unmarked)	<4
CC(C)CN(C[C@@H](O)[C@H](Cc1ccccc1)NC(=O)OCc1cncs1)S(=O)(=O)c1ccc2nc(NC(=O)c3ccco3)oc2c1	5.03

Hey, quick one: what's Tox (pCC50) for each of these?
1. COC(=O)Nc1nc2ccc(S(=O)(=O)N(CC(C)C)C[C@@H](O)[C@H](Cc3ccccc3)NC(=O)OCc3cncs3)cc2o1
2. CC(C)CN(C[C@@H](O)[C@H](Cc1ccccc1)NC(=O)OCc1cncs1)S(=O)(=O)c1ccc2nc(NC(=O)c3cccnc3)oc2c1
3. CCOC(=O)Nc1nc2ccc(S(=O)(=O)N(CC(C)C)C[C@@H](O)[C@H](Cc3ccccc3)NC(=O)OCc3cncs3)cc2o1

["<4", 4.24, "<4"]
